RECORDED ENDPOINT: melting point (°C)

Study these solved cases before continuing.
CCC1CC(=O)N(Cc2ccc(NC(=O)C(C)C)cc2)N=C1c1ccc(OC)c(OC)c1 (centres undefined)    144
CCOc1ccc2c(c1)C(C)(c1ccccc1O)C(=O)N2S(=O)(=O)c1ccc(C(=O)NC(C)(C)C)cc1 (centres undefined)    180
CC(C)C1NC(c2ccccc2)=NNC1=O (centres undefined)    164

I: Nc1nc2ccc(SSc3ccc4nc(N)[nH]c4c3)cc2[nH]1
II: CN1CCN(C(=O)CCC(=O)N[C@@H]2CN3C(=O)N(c4cc(Cl)nc(Cl)c4)C(=O)[C@@]3(Cc3ccc(OC(F)(F)F)cc3)C2)CC1
III: CC(C(=O)O)c1cccc(NC(=O)NCC(=O)N2[C@@H](c3ccccc3F)SC[C@H]2C(=O)OC(C)(C)C)c1 (some centres undefined)
Hey, quick one: sort these by melting point, top value first please. Use the labels to give the ranking in the order requested. I, III, II
